Molecular target: UniProt Q9HCR9
Sequence (Q9HCR9 whole entry): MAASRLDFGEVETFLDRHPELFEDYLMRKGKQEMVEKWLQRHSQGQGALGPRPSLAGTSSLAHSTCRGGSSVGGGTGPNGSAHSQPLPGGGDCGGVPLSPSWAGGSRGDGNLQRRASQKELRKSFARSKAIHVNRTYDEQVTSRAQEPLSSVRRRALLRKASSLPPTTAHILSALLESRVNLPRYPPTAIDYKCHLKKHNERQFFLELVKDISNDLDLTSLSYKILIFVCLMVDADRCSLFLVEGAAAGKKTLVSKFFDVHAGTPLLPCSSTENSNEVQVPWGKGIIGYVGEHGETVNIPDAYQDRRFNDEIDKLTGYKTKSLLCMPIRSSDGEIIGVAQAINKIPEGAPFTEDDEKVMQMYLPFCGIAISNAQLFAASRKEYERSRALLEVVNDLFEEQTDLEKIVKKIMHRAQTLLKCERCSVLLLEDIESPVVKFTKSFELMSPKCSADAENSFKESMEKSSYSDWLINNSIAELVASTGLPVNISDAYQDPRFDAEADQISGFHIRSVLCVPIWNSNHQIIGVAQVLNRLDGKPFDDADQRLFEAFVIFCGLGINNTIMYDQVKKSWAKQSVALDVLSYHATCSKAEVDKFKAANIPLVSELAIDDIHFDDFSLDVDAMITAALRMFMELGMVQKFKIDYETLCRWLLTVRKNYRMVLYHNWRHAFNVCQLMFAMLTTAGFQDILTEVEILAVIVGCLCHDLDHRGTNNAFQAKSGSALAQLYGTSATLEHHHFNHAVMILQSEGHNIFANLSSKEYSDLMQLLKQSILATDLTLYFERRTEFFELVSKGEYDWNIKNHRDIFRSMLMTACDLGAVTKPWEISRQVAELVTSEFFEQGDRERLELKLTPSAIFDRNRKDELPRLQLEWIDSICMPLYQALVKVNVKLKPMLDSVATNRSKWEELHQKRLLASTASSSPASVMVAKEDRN
Assay: Inhibition of human recombinant PDE11A-mediated hydrolysis of cAMP after 30 mins by fluorescence polarization assay
pIC50: −log10 of the molar value.
measurementKind: pIC50

P = CCN1C(=O)[C@@H]2Cc3c([nH]c4ccccc34)[C@@H](c3ccc(Cl)cc3Cl)N2C1=O
Q = CCN1C(=O)[C@H]2Cc3c([nH]c4ccccc34)[C@@H](c3ccc(Cl)cc3Cl)N2C1=O
R = CCN1CC(=O)N2[C@H](c3ccc(Cl)cc3Cl)c3[nH]c4ccccc4c3C[C@@H]2C1=O
// ascending sort on pIC50 for the entries above Reply with the labels, ordered as the question asks.
P, Q, R
(P: 4.89, Q: 5.70, R: 6.98)

---

Test system: MDA-MB-231
Experiment: Growth inhibition of human MDA-MB-231 cells after 72 hrs by luminescence assay
Assay type: functional, cell-based
Details: MDA-MB-231, 72 h
measurementKind: IC50 (nM)

a = CC(C)(C)N1C(=O)[C@@H]2Cc3c([nH]c4ccccc34)[C@H](c3ccc(Cl)c(Cl)c3)N2C1=O
b = CC(C)(C)N1C(=O)[C@H]2Cc3c([nH]c4ccccc34)[C@H](c3ccc(Cl)cc3Cl)N2C1=O
Which numeric IC50 is bigger, that of a or that of b ? Your choice should be expressed through its label.
a
(a: 1430 nM, b: 640 nM)

I = CCCCN1CC(=O)N2[C@@H](c3ccc(Cl)cc3Cl)c3[nH]c4ccccc4c3C[C@@H]2C1=O
II = COC(=O)[C@H]1Cc2c([nH]c3ccccc23)[C@H](c2ccc(Cl)cc2Cl)N1
III = CC(C)(C)N1CC(=O)N2[C@@H](c3ccc(Cl)cc3Cl)c3[nH]c4ccccc4c3C[C@H]2C1=O
Sort (3 molecules) by IC50: min first. Reply with the labels, ordered as the question asks.
I, III, II

I = CC(C)(C)N1C(=O)[C@@H]2Cc3c([nH]c4ccccc34)[C@@H](c3ccc(Cl)cc3Cl)N2C1=O
II = CCN1C(=O)[C@@H]2Cc3c([nH]c4ccccc34)[C@H](c3ccc(Cl)c(Cl)c3)N2C1=O
III = CN1CC(=O)N2[C@@H](c3ccc(Cl)cc3Cl)c3[nH]c4ccccc4c3C[C@@H]2C1=O
Sort (3 molecules) by IC50: min first. Reply with the labels, ordered as the question asks.
I, III, II
(I: 1260 nM, III: 3260 nM, II: 4780 nM)

---

Target: cGMP-specific 3',5'-cyclic phosphodiesterase (Homo sapiens)
Assay: Inhibition of human recombinant PDE5 at 10 uM after 30 mins by fluorescence polarization assay
measurementKind: inhibition (%)

Worked examples, 3 molecules total:
testSmiles	testValue
CC(C)(C)N1C(=O)[C@@H]2Cc3c([nH]c4ccccc34)[C@@H](c3ccc(Cl)c(Cl)c3)N2C1=O	88
CCCCN1CC(=O)N2[C@H](c3ccc(Cl)cc3Cl)c3[nH]c4ccccc4c3C[C@H]2C1=O	89
CCN1CC(=O)N2[C@H](c3ccc(Cl)cc3Cl)c3[nH]c4ccccc4c3C[C@@H]2C1=O	91

I = CCN1C(=O)[C@@H]2Cc3c([nH]c4ccccc34)[C@@H](c3ccc(Cl)c(Cl)c3)N2C1=O
II = CCN1CC(=O)N2[C@H](c3c(Cl)cccc3Cl)c3[nH]c4ccccc4c3C[C@@H]2C1=O
Parameter metric = inhibition. Return the lower-valued option from I and II . Your choice should be expressed through its label.
II
(II: 40%, I: 90%)
